Just for reference, PubChem BioAssay (NCI) is where these values come from.

assay: NCI Yeast Anticancer Drug Screen. Data for the mec2-1 strain (AID 157); conditions: S. cerevisiae mec2-1 strain, at 50.0 µM
About 79,000 compounds went through this panel and 15% of them were active in at least one assay; those are over-represented in the sample as a whole. Active and inactive are the calls of the source. No stated cut-off is given here; in the data, active means growth inhibition above about 70%; inactive means the rest.
Labels: active, inactive

{"Compound": "CC(C=O)=C(c1ccccc1)c1ccccc1", "Class": "inactive"}
{"Compound": "CN(C)c1ccc(C2CC(C)(N3CCCC3)Oc3cc4c(cc32)OCO4)cc1 (stereo not given)", "Class": "inactive"}
{"Compound": "C/C(=N\\NC(=S)NNC(=S)N1CCCc2ccccc21)c1ccccn1", "Class": "active"}
{"Compound": "CC1(C)CCC(C)(C)c2cc(C(=O)Nc3ccc(C(=O)O)cc3)ccc21", "Class": "inactive"}
{"Compound": "C=C1OC(=O)C(=O)N1CC(=O)O", "Class": "inactive"}
{"Compound": "CCCCCCCCCCCCNCC(=O)O", "Class": "active"}
{"Compound": "CCC12C=CCN3CCC4(c5cc(C(c6ccccn6)c6cc7ccccc7n6C)c(OC)cc5N(C)C4C(O)(C(=O)OC)C1OC(C)=O)C32 (stereo not given)", "Class": "active"}
{"Compound": "CCCC/C=C1\\CCC(CN2CCOCC2)C1=O (stereo not given)", "Class": "active"}
{"Compound": "O=C1C(Cl)=C(Cl)C(=O)C2=C1CC(Cl)C(Cl)C2 (stereo not given)", "Class": "active"}
{"Compound": "Cc1ccc(S(=O)(=O)NC(Cc2ccccc2)C(=O)CCl)cc1 (stereo not given)", "Class": "active"}
{"Compound": "COC(=O)/C(C#N)=C1\\NC(=O)CC(c2ccccc2)C1C#N (stereo not given)", "Class": "inactive"}
{"Compound": "C/C(=N\\NC(=S)N(C)C)c1cccc(C)n1", "Class": "active"}
{"Compound": "O=C1c2ccccc2-c2ccc(N3C(=O)C4CCCCC4C3=O)cc21 (stereo not given)", "Class": "inactive"}
{"Compound": "COc1ccc(/C=N/NC(=O)c2ccco2)cc1OC", "Class": "active"}
{"Compound": "Cn1c(=O)c2c(nc(OCC(C)(C)C)n2C)n(C)c1=O", "Class": "inactive"}
{"Compound": "CC1=C(C)C(=O)C2=C(OCCCO2)C1=O", "Class": "inactive"}
{"Compound": "N#C/C(=C/c1ccc([N+](=O)[O-])o1)c1ccccc1", "Class": "inactive"}
{"Compound": "CCCCN(CCCC)CC(O)Cc1cc2ccccc2c2ccccc12 (stereo not given)", "Class": "inactive"}
{"Compound": "COc1ccccc1C(=O)Nc1ccc(Cl)c(C(=O)OC(C)C)c1", "Class": "inactive"}
{"Compound": "O=[N+]([O-])c1ccc(C(Cl)Cc2ccc(Cl)cc2)cc1 (stereo not given)", "Class": "active"}

----------
experiment: NCI Yeast Anticancer Drug Screen. Data for the sgs1 mgt1 strain (AID 161);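 further: 0% = growth of cultures given vehicle only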; details: S. cerevisiae sgs1 mgt1 strain, at 50.0 µM
Compounds without any hit were thinned out: in the full panel of roughly 79,000, 15% have a hit. The source made the active and inactive calls. Cut-off read from the data, not from the text of the source: active = growth inhibition above about 70%; inactive = the rest.
Outcome codes: active, inactive

{"Compound": "OC(OC/C(I)=C(/I)COC(O)C(Cl)(Cl)Cl)C(Cl)(Cl)Cl (stereo not drawn)", "Class": "active"}
{"Compound": "O=C(/C=C\\c1cccc2ccccc12)c1ccccn1", "Class": "active"}
{"Compound": "COC(=O)c1cccc2c1C(=O)c1ccccc1-2", "Class": "inactive"}

----------
# key: entry, value: growth inhibition
test: NCI Yeast Anticancer Drug Screen. Data for the bub3 strain (AID 167); settings: S. cerevisiae bub3 mutant strain, at 50.0 µM, active compounds read high
This is part of a sample that, as a whole, favours compounds with a hit. Of some 79,000 tested, about 15% had one in any assay.

{"Smiles entry": "Oc1cc(Cc2ccccc2)c(Cc2ccccc2)cc1O", "Unit descriptor": "%", "growth inhibition": 91.5}
{"Smiles entry": "O=[N+]([O-])c1ccc(CCCl)c(CCl)c1", "Unit descriptor": "%", "growth inhibition": 90.3}
{"Smiles entry": "CNC(=O)OCc1c(COC(=O)NC)c(-c2ccc(Cl)c(Cl)c2)n2c1Cc1ccccc1C2", "Unit descriptor": "%", "growth inhibition": 88.1}

----------
test: NCI Yeast Anticancer Drug Screen. Data for the bub3 strain (AID 167); details: S. cerevisiae bub3 mutant strain, at 50.0 µM, active compounds read high
This is part of a sample that, as a whole, favours compounds with a hit. Of some 79,000 tested, about 15% had one in any assay.

{"Compound": "O=[N+]([O-])c1ccc(C(Nc2ccccc2)c2ccc3cccnc3c2O)cc1 (stereo not drawn)", "growth inhibition (%)": 58.6}
{"Compound": "CN(c1ccc(Cl)cc1)S(=O)(=O)c1cccc([N+](=O)[O-])c1", "growth inhibition (%)": 78}
{"Compound": "CSC(=S)N/N=C(C)/C=C/c1ccccc1", "growth inhibition (%)": 97.4}

----------
test: NCI Yeast Anticancer Drug Screen. Data for the mlh1 rad18 strain (AID 175); settings: S. cerevisiae mlh1 rad18 strain growth inhibition; at 50.0 µM; active compounds read high
About 79,000 compounds went through this panel and 15% of them were active in at least one assay; those are over-represented in the sample as a whole.

{"Compound": "CC/C=C\\C/C=C\\C/C=C\\CCCCCCCC(=O)OCC(O)CO (stereo not drawn)", "growth inhibition [%]": 52.5}
{"Compound": "Cn1c(=O)c2c(ncn2CCCCOc2ccc3c(c2)[n+]([O-])nc(N)[n+]3[O-])n(C)c1=O", "growth inhibition [%]": 75.8}
{"Compound": "O=P1(N2CCCCC2)N(Cc2ccc(Cl)cc2)CCCN1Cc1ccc(Cl)cc1", "growth inhibition [%]": 76.8}
{"Compound": "Cc1ccc(S(=O)(=O)CC2(Br)CCc3ccccc3C2=O)cc1 (stereo not drawn)", "growth inhibition [%]": 54.8}
{"Compound": "N=c1n(CC(=O)NC23CC4CC(CC(C4)C2)C3)c2ccccc2n1CC(=O)NC12CC3CC(CC(C3)C1)C2", "growth inhibition [%]": 79.1}
{"Compound": "CC(C)c1cccc(O)c1O", "growth inhibition [%]": 86.9}
{"Compound": "O=c1oc(-c2cc([N+](=O)[O-])cc([N+](=O)[O-])c2Cl)nc2ccccc12", "growth inhibition [%]": 86.8}
{"Compound": "O=C1OC(=O)c2ccc(S)c3cccc1c23", "growth inhibition [%]": 76}
{"Compound": "CC12CCC3C(CCC4CC(O)CCC43C)C1CC1C2=NOC1O (stereo not drawn)", "growth inhibition [%]": 56.7}
{"Compound": "COC(=O)CCC(=O)c1ccc2c(c1)CC1(Cc3ccccc3C1)C2", "growth inhibition [%]": 12.1}
{"Compound": "CS(=O)(=O)OCCN(CCOS(C)(=O)=O)c1ccc(C=Nc2ccc(-c3csc(-c4ccc(Cl)cc4)n3)cc2)cc1", "growth inhibition [%]": 95.2}
{"Compound": "CC1(C)OC(C(COC(=O)c2ccc([N+](=O)[O-])cc2)OS(=O)(=O)c2ccc([N+](=O)[O-])cc2)C(C(SCc2ccccc2)SCc2ccccc2)O1 (stereo not drawn)", "growth inhibition [%]": 67}
{"Compound": "COC(=O)CCCCCOS(=O)(=O)c1ccc(C)cc1", "growth inhibition [%]": 0.7}
{"Compound": "C[N+](C)(C)CC(=O)N/N=C(\\C(=O)NC1=C(Cl)C(=O)c2ccccc2C1=O)C(C#N)c1nc(-c2ccc([N+](=O)[O-])cc2)cs1 (stereo not drawn)", "growth inhibition [%]": 78.7}
{"Compound": "Cc1cc2c(cc1C)C(=O)OC2=O", "growth inhibition [%]": 41.5}
{"Compound": "COc1ccc(OC)c2c1C=CC(Br)=CC2", "growth inhibition [%]": 39.5}
{"Compound": "CCOC(=O)c1cccc(C)c1C(=O)c1ccc(C)cc1C", "growth inhibition [%]": 59.6}
{"Compound": "C/C=C\\C=N\\NC(N)=S", "growth inhibition [%]": 28.6}

----------
assay: NCI Yeast Anticancer Drug Screen. Data for the bub3 strain (AID 167); conditions: S. cerevisiae bub3 mutant strain, at 50.0 µM, active compounds read high
Compounds without any hit were thinned out: in the full panel of roughly 79,000, 15% have a hit.

{"Compound": "COc1cc(C(Sc2ccccc2C(=O)O)Sc2ccccc2C(=O)O)ccc1O", "growth inhibition, %": 87.9}
{"Compound": "COc1cccc(/C=C2\\CCC(CN(C)C)C2=O)c1 (configuration not stated)", "growth inhibition, %": 92.5}
{"Compound": "CCOC(=O)c1c(NC(=O)CBr)sc(C)c1C", "growth inhibition, %": 38.1}
{"Compound": "COC(=O)C12CCC(C)(C)CC1C1=CCC3C4(C)CC(O)C(O)C(C)(C(=O)OC)C4CCC3(C)C1(CO)CC2 (configuration not stated)", "growth inhibition, %": 88.8}
{"Compound": "Cc1nc2c(Cl)nc(Cl)nc2s1", "growth inhibition, %": 98.3}
{"Compound": "O=S(=O)(c1ccc2c(c1)CCCN2)N1CCC[C@H]2CCCC[C@@H]21", "growth inhibition, %": 98.2}
{"Compound": "COC(=O)c1cccc2c1C(=O)c1ccccc1-2", "growth inhibition, %": -10.7}
{"Compound": "CC(CC(C)[C@H]1CCC2[C@H]3C(CC[C@@]21C)[C@@]1(C)CCC(O)C[C@H]1C[C@@H]3O)C(=O)O (some centres not stated)", "growth inhibition, %": 99}
{"Compound": "[N-]=[N+]=CC(=O)c1ccc(C(=O)C=[N+]=[N-])cc1", "growth inhibition, %": 99.5}
{"Compound": "Oc1ccc(-c2ccc3ccccc3c2)cc1", "growth inhibition, %": 99.2}
{"Compound": "CC(=O)OC/C=C/CCCOC(C)=O", "growth inhibition, %": 80.3}
{"Compound": "CCCCCNC(=O)C1C(=O)N(CCCCC)C(=O)/C1=N\\N (configuration not stated)", "growth inhibition, %": 30.8}
{"Compound": "C[C@@H]1CN(CC2COc3ccccc3O2)[C@@H](C)CN1CC1COc2ccccc2O1 (some centres not stated)", "growth inhibition, %": 84.7}
{"Compound": "CCCCCCCCCCCCSC(=NCC)NCC", "growth inhibition, %": 99.6}
{"Compound": "COC(=S)S", "growth inhibition, %": 15.6}
{"Compound": "OCC(O)Cc1c(Cl)c(Cl)c(Oc2c(Cl)c(Cl)c(CC(O)CO)c(Cl)c2Cl)c(Cl)c1Cl (configuration not stated)", "growth inhibition, %": 64.7}
{"Compound": "Cc1ccc(NC(Nc2ccc(C)cc2C)=C(/C=C(\\Cl)[N+](=O)[O-])[N+](=O)[O-])c(C)c1", "growth inhibition, %": 96}
{"Compound": "O=[N+]([O-])C(=C(Nc1ccccc1)Nc1ccccc1)/C(Cl)=C(\\Cl)Br", "growth inhibition, %": 99.2}
{"Compound": "O=C(CC(c1cccnc1)C(C(=O)c1ccc(Cl)cc1)C(CC(=O)c1ccc(Cl)cc1)c1cccnc1)c1ccc(Cl)cc1 (configuration not stated)", "growth inhibition, %": 30.8}
{"Compound": "c1ccc(C(CNCCN2CCCCCC2)C2CCCCC2)cc1 (configuration not stated)", "growth inhibition, %": 66.5}
{"Compound": "O=C1CCCC/C1=C\\c1ccc(Cl)c(Cl)c1", "growth inhibition, %": 98.2}
{"Compound": "CC(CO)(CO)N=Cc1cc(I)cc(I)c1O", "growth inhibition, %": 99.5}
{"Compound": "c1ccc2c(c1)Sc1nccc3ccnc-2c13", "growth inhibition, %": 79.7}
{"Compound": "CCCC(C)(O)C(C)CC (configuration not stated)", "growth inhibition, %": 2.45}
{"Compound": "c1ccc2c(c1)Cc1nc3ccccc3nc1-2", "growth inhibition, %": 97.4}
{"Compound": "O=Cc1ccc(O)cc1O", "growth inhibition, %": 55.4}
{"Compound": "CS(=O)(=O)OCCN(CCOS(C)(=O)=O)c1ccc(C=Nc2ccc(-c3csc(-c4ccc(Cl)cc4)n3)cc2)cc1", "growth inhibition, %": 69.4}
